Test system: OVCAR-4 ovarian
experimental protocol: NCI-60 one-dose screen, 48 h
condition label: 10 µM unless noted
This is part of a sample that, as a whole, favours compounds with a hit. Of some 83,000 tested, about 20% had one in any assay. Active and inactive are the calls of the source. The calls were made as follows: active = growth percent below 10; inactive = the rest.
// allowed return values: active, inactive

// query Just curious, what result did CC(CN1CCCCC1)C(=O)c1ccccc1 (configuration not stated) get here?
// result inactive

// query Just curious, what result did O=C(O)C1CCC(=O)N1C(=O)OCc1ccccc1 (configuration not stated) get here?
// result inactive

// query Just curious, what result did CCOc1c(C#N)nnc2c(C#N)c(NC(=O)c3ccccc3)nn12 get here?
// result inactive

// query Just curious, what result did Cc1ccc(Cc2cnc(NC(=O)c3ccc4noc(-c5ccccc5)c4c3)s2)cc1 get here?
// result inactive

// query Just curious, what result did CCCCCc1nc2c(c3c1CCCC3)CCCC2 get here?
// result inactive

// query Just curious, what result did COc1ccc(-c2nc(SC(C)C)nc(NNC(N)=S)c2C#N)cc1 get here?
// result inactive

// query Just curious, what result did COC(=O)[C@]12CC[C@@H](C)[C@H](C)[C@@H]1C1=CC[C@@H]3[C@@]4(C)C(C=O)=C[C@@](C)(COC(C)=O)C4=CC[C@@]3(C)[C@]1(C)CC2 get here?
// result inactive

// query Just curious, what result did CCN(CC)CCN1C(=O)c2c(c(C)c3c(oc4cc(O)ccc43)c2C)C1=O get here?
// result active

// query Just curious, what result did O=[N+]([O-])c1ccc(-c2cc(-c3ccc(Nc4nc(Nc5ccc(Cl)cc5)nc(Nc5ccc(Cl)cc5)n4)cc3)no2)cc1 get here?
// result inactive

// query Just curious, what result did NC(=O)c1ccc[n+](Cc2ccc(Cl)cc2Cl)c1 get here?
// result inactive

// query Just curious, what result did O=C1N=c2cc3c(cc2=C/C1=C/c1sc(=S)n(CCc2ccc(O)cc2)c1O)OCCO3 get here?
// result inactive

// query Just curious, what result did Cn1ccc2c(c1=O)C(=O)c1nccc3c1c-2nc1ccccc13 get here?
// result active
